- target_or_test_system: Gamma-aminobutyric acid receptor subunit alpha-1 [28-456]/beta-2 [26-512]/gamma-2 [40-467,D95C] (Homo sapiens, UniProt P14867+P18507+P47870, D95C)
- Construct: 28-456; 26-512; 40-467
- experimental_protocol: Radioligand Binding Assay
- reported_conditions: 25 °C
measure: Ki (nM)
Please state the figure in nM; there is no need to write the unit.

# input I am curious: what Ki value has been reported for CN1CCN(C(=O)Oc2c3[nH]ccnc-3c(=O)n2-c2ccc(Cl)cn2)CC1 ?
# output 82.4

---

- target_or_test_system: Gamma-aminobutyric acid receptor subunit alpha-3 [29-492]/beta-2 [26-512]/gamma-2 [40-467] (Homo sapiens, UniProt P18507+P34903+P47870)
- Construct: 29-492; 26-512; 40-467
- experimental_protocol: Radioligand Binding Assay
- reported_conditions: pH 7.4; 22 °C
measure: Ki (nM)
Please state the figure in nM; there is no need to write the unit.

# input I am curious: what Ki value has been reported for CN1CCN(C(=O)Oc2c3[nH]ccnc-3c(=O)n2-c2ccc(Cl)cn2)CC1 ?
# output 162

---

- target_or_test_system: Gamma-aminobutyric acid receptor subunit alpha-1 [F99C]/beta-2 [26-512]/gamma-2 [40-467] (Homo sapiens, UniProt P14867+P18507+P47870, F99C)
- Construct: 26-512; 40-467
- experimental_protocol: Radioligand Binding Assay
- reported_conditions: pH 7.4; 22 °C
measure: Ki (nM)
Please state the figure in nM; there is no need to write the unit.

# input I am curious: what Ki value has been reported for CN1CCN(C(=O)Oc2c3[nH]ccnc-3c(=O)n2-c2ccc(Cl)cn2)CC1 ?
# output 407

---

- target_or_test_system: Gamma-aminobutyric acid receptor subunit alpha-6 [20-453]/beta-2 [26-512]/gamma-2 [40-467] (Homo sapiens, UniProt P18507+P47870+Q16445)
- Construct: 20-453; 26-512; 40-467
- experimental_protocol: Radioligand Binding Assay
- reported_conditions: pH 7.4; 22 °C
measure: Ki

# input I am curious: what Ki value has been reported for CN1CCN(C(=O)Oc2c3[nH]ccnc-3c(=O)n2-c2ccc(Cl)cn2)CC1 [ESZ] ?
# output > 15 µM

---

- target_or_test_system: Gamma-aminobutyric acid receptor subunit alpha-1 [V202C]/beta-2 [26-512]/gamma-2 [40-467] (Homo sapiens, UniProt P14867+P18507+P47870, V202C)
- Construct: 26-512; 40-467
- experimental_protocol: Radioligand Binding Assay
- reported_conditions: 25 °C
measure: pKi
API: returns pKi as number; meaning -log10 of concentration in mol/L.

# input I am curious: what pKi value has been reported for CN1CCN(C(=O)Oc2c3[nH]ccnc-3c(=O)n2-c2ccc(Cl)cn2)CC1 [ESZ] ?
# output 6.60

---

- target_or_test_system: Gamma-aminobutyric acid receptor subunit alpha-1 [28-456]/beta-2 [26-512]/gamma-2 [40-467,T120C] (Homo sapiens, UniProt P14867+P18507+P47870, T120C)
- Construct: 28-456; 26-512; 40-467
- experimental_protocol: Radioligand Binding Assay
- reported_conditions: 25 °C
measure: Ki (nM)
Please state the figure in nM; there is no need to write the unit.

# input I am curious: what Ki value has been reported for CN1CCN(C(=O)Oc2c3[nH]ccnc-3c(=O)n2-c2ccc(Cl)cn2)CC1 ?
# output 75.2

---

- target_or_test_system: Gamma-aminobutyric acid receptor subunit alpha-1 [G200C]/beta-2 [26-512]/gamma-2 [40-467] (Homo sapiens, UniProt P14867+P18507+P47870, G200C)
- Construct: 26-512; 40-467
- experimental_protocol: Radioligand Binding Assay
- reported_conditions: 25 °C
measure: pKi
API: returns pKi as number; meaning -log10 of concentration in mol/L.

# input I am curious: what pKi value has been reported for CN1CCN(C(=O)Oc2c3[nH]ccnc-3c(=O)n2-c2ccc(Cl)cn2)CC1 [ESZ] ?
# output 6.92

---

- target_or_test_system: Gamma-aminobutyric acid receptor subunit alpha-4 [36-554]/beta-2 [26-512]/gamma-2 [40-467] (Homo sapiens, UniProt P18507+P47870+P48169)
- Construct: 36-554; 26-512; 40-467
- experimental_protocol: Radioligand Binding Assay
- reported_conditions: pH 7.4; 22 °C
measure: Ki

compound	Ki
CN1CCN(C(=O)Oc2c3[nH]ccnc-3c(=O)n2-c2ccc(Cl)cn2)CC1 [ESZ]	> 15 µM

Please turn your attention to the following entry.
# input I am curious: what Ki value has been reported for Cc1ccc(-c2nc3ccc(C)cn3c2CC(=O)N(C)C)cc1 [Ambien] ?
# output > 15 µM

---

- target_or_test_system: Gamma-aminobutyric acid receptor subunit alpha-1 [28-456]/beta-2 [26-512]/gamma-2 [40-467,M169C] (Homo sapiens, UniProt P14867+P18507+P47870, M169C)
- Construct: 28-456; 26-512; 40-467
- experimental_protocol: Radioligand Binding Assay
- reported_conditions: 25 °C
measure: Ki (nM)
Please state the figure in nM; there is no need to write the unit.

# input I am curious: what Ki value has been reported for CN1CCN(C(=O)Oc2c3[nH]ccnc-3c(=O)n2-c2ccc(Cl)cn2)CC1 ?
# output 102

---

- target_or_test_system: Gamma-aminobutyric acid receptor subunit alpha-1 [V211C]/beta-2 [26-512]/gamma-2 [40-467] (Homo sapiens, UniProt P14867+P18507+P47870, V211C)
- Construct: 26-512; 40-467
- experimental_protocol: Radioligand Binding Assay
- reported_conditions: 25 °C
measure: Ki (µM)
Please state the figure in µM; there is no need to write the unit.

# input I am curious: what Ki value has been reported for CN1CCN(C(=O)Oc2c3[nH]ccnc-3c(=O)n2-c2ccc(Cl)cn2)CC1 [ESZ] ?
# output 0.0624

---

- target_or_test_system: Gamma-aminobutyric acid receptor subunit alpha-1 [28-456]/beta-2 [26-512]/gamma-2 [40-467,R224C] (Homo sapiens, UniProt P14867+P18507+P47870, R224C)
- Construct: 28-456; 26-512; 40-467
- experimental_protocol: Radioligand Binding Assay
- reported_conditions: 25 °C
measure: pKi
API: returns pKi as number; meaning -log10 of concentration in mol/L.

# input I am curious: what pKi value has been reported for CN1CCN(C(=O)Oc2c3[nH]ccnc-3c(=O)n2-c2ccc(Cl)cn2)CC1 ?
# output 7.15

---

- target_or_test_system: Gamma-aminobutyric acid receptor subunit alpha-1 [S204C]/beta-2 [26-512]/gamma-2 [40-467] (Homo sapiens, UniProt P14867+P18507+P47870, S204C)
- Construct: 26-512; 40-467
- experimental_protocol: Radioligand Binding Assay
- reported_conditions: 25 °C
measure: pKi
API: returns pKi as number; meaning -log10 of concentration in mol/L.

# input I am curious: what pKi value has been reported for CN1CCN(C(=O)Oc2c3[nH]ccnc-3c(=O)n2-c2ccc(Cl)cn2)CC1 [ESZ] ?
# output 7.24

---

- target_or_test_system: Gamma-aminobutyric acid receptor subunit alpha-1 [S205C]/beta-2 [26-512]/gamma-2 [40-467] (Homo sapiens, UniProt P14867+P18507+P47870, S205C)
- Construct: 26-512; 40-467
- experimental_protocol: Radioligand Binding Assay
- reported_conditions: 25 °C
measure: Ki (nM)
Please state the figure in nM; there is no need to write the unit.

# input I am curious: what Ki value has been reported for CN1CCN(C(=O)Oc2c3[nH]ccnc-3c(=O)n2-c2ccc(Cl)cn2)CC1 [ESZ] ?
# output 34.9

---

- target_or_test_system: Gamma-aminobutyric acid receptor subunit alpha-1 [28-456]/beta-2 [26-512]/gamma-2 [40-467,R171C] (Homo sapiens, UniProt P14867+P18507+P47870, R171C)
- Construct: 28-456; 26-512; 40-467
- experimental_protocol: Radioligand Binding Assay
- reported_conditions: 25 °C
measure: Ki (nM)
Please state the figure in nM; there is no need to write the unit.

# input I am curious: what Ki value has been reported for CN1CCN(C(=O)Oc2c3[nH]ccnc-3c(=O)n2-c2ccc(Cl)cn2)CC1 [ESZ] ?
# output 110

---

- target_or_test_system: Gamma-aminobutyric acid receptor subunit alpha-1 [28-456]/beta-2 [26-512]/gamma-2 [40-467,T181C] (Homo sapiens, UniProt P14867+P18507+P47870, T181C)
- Construct: 28-456; 26-512; 40-467
- experimental_protocol: Radioligand Binding Assay
- reported_conditions: 25 °C
measure: pKi
API: returns pKi as number; meaning -log10 of concentration in mol/L.

# input I am curious: what pKi value has been reported for CN1CCN(C(=O)Oc2c3[nH]ccnc-3c(=O)n2-c2ccc(Cl)cn2)CC1 [ESZ] ?
# output 6.30

Hey, just so you know, these numbers are from BindingDB's records for doi:10.1021/jm800889m.
